molecular target: recombinant human OX40 (Acro Biosystems, cat. no. OXO-H5224) (human) (UniProt P43489); assay: BLI cross-block; competitor (immobilized 1st Ab): IgG1-CD134-003
Sequence (P43489 29-216 limits assumed): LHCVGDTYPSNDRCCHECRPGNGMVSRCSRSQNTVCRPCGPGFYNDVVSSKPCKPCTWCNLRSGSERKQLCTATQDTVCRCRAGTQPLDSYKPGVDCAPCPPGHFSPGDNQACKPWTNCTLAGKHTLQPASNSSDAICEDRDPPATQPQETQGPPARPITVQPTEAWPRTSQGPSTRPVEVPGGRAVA

BINDER: IgG1-CD134-RG7888 (antibody, INN chains, looked up, V domains shown, IgG1) VH: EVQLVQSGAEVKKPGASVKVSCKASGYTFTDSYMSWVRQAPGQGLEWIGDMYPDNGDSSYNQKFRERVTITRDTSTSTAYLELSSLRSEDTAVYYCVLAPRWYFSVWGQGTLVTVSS VL: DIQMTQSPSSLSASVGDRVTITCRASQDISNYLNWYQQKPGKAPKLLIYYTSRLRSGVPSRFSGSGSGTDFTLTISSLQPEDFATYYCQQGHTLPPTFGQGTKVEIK
corrected association response, nm: 0.66
